As shown below, each of these compounds has a reported IC50 value.
assay_remarks: Cytotoxicity against human HepG2/C3A cells after 24 hrs by neutral red dye uptake assay
Type: cell-based
Report only the number, with the unit µM understood.

[[record]]
chemical_smiles = "Cc1ccc(-c2cc3c4c(nccc4n2)-c2ccccc2C3=O)cc1"
obs_value = 7.14

[[record]]
chemical_smiles = "COc1ccc(-c2cc(O)c3c(c2)C(=O)c2ccccc2C3=O)cc1"
obs_value = 1.87


// returns reported IC50 for input `COc1ccc(-c2cc3c(c(/C=C/N(C)C)n2)C(=O)c2ccccc2C3=O)cc1`
33.3

// returns reported IC50 for input `O=C1c2ccccc2-c2nccc3nc(-c4ccccc4)cc1c23`
21.5

// returns reported IC50 for input `Cc1ccc(-c2cc3c(c(/C=C/N(C)C)n2)C(=O)c2ccccc2C3=O)cc1`
27.9

// returns reported IC50 for input `O=C1c2ccccc2C(=O)c2c(O)cc(-c3ccccc3)cc21`
10.8

// returns reported IC50 for input `CN(C)/C=C/c1nc(-c2ccccc2)cc2c1C(=O)c1ccccc1C2=O`
24.4

// returns reported IC50 for input `CN(C)/C=C/c1nc(-c2ccc(Cl)cc2)cc2c1C(=O)c1ccccc1C2=O`
18.8

// returns reported IC50 for input `CN(C)/C=C/c1nc(-c2ccc(F)cc2)cc2c1C(=O)c1ccccc1C2=O`
37.3

----------
assay_remarks: Antimicrobial activity against Mycobacterium avium subsp. avium ATCC 19698 expressing luciferase reporter gene assessed as growth inhibition after 6 days by luminometry
Format: functional
test_conditions: ATCC 19698, 144 h
Response field label takes Met when GI50 is strictly below 4 µM and Not met in all other cases.

Worked set:
[[record]]
chemical_smiles = "CN(C)/C=C/c1nc(-c2ccc(F)cc2)cc2c1C(=O)c1ccccc1C2=O"
qualitative_label = "Met"

[[record]]
chemical_smiles = "CN(C)/C=C/c1nc(-c2ccc(Cl)cc2)cc2c1C(=O)c1ccccc1C2=O"
qualitative_label = "Met"

[[record]]
chemical_smiles = "O=C1c2ccccc2C(=O)c2c(O)cc(-c3ccccc3)cc21"
qualitative_label = "Not met"

[[record]]
chemical_smiles = "CN(C)/C=C/c1nc(-c2ccccc2)cc2c1C(=O)c1ccccc1C2=O"
qualitative_label = "Not met"

[[record]]
chemical_smiles = "O=C1c2ccccc2-c2nccc3nc(-c4ccccc4)cc1c23"
qualitative_label = "Not met"


Consider the compound `COc1ccc(-c2cc3c(c(/C=C/N(C)C)n2)C(=O)c2ccccc2C3=O)cc1` . Is its GI50 strictly less than 4 µM?
Met

Consider the compound `Cc1ccc(-c2cc3c(c(/C=C/N(C)C)n2)C(=O)c2ccccc2C3=O)cc1` . Is its GI50 strictly less than 4 µM?
Met

Consider the compound `COc1ccc(-c2cc(O)c3c(c2)C(=O)c2ccccc2C3=O)cc1` . Is its GI50 strictly less than 4 µM?
Met

Consider the compound `COc1ccc(-c2cc3c4c(nccc4n2)-c2ccccc2C3=O)cc1` . Is its GI50 strictly less than 4 µM?
Met

----------
assay_remarks: Therapeutic index, ratio of IC50 for human HepG2/C3A cells to GI50 for Mycobacterium tuberculosis H37Rv ATCC 27294
Assay type: cell-based
test_conditions: read-out: TI
As shown below, each of these compounds has a reported selectivity ratio value.

[[record]]
chemical_smiles = "O=C1c2ccccc2-c2nccc3nc(-c4ccc(Cl)cc4)cc1c23"
readout_label = "selectivity ratio"
obs_value = "> 69.4"

[[record]]
chemical_smiles = "O=C1c2ccccc2-c2nccc3nc(-c4ccc(F)cc4)cc1c23"
readout_label = "selectivity ratio"
obs_value = "> 72.4"


Kindly review the next compound as well.
// returns reported selectivity ratio for input `COc1ccc(-c2cc3c4c(nccc4n2)-c2ccccc2C3=O)cc1`
> 135

Reference for the values: ChEMBL document CHEMBL2434878
